System: canine heart
Measurement parameters: 0.2 mg/kg i.v., 1 min, mean ± SE
Consider the following compounds; for each one, report its Heart rate.
One number for each entry, in beats per min.

Dear reader, for each entry below, please note its Heart rate.
1. COc1ccc(CCN(C)CCCC(C#N)(c2ccc(OC)c(OC)c2)C(C)C)cc1OC (racemic) [80/20S]
2. COc1ccc(CCN(C)CCC[C@](C#N)(c2ccc(OC)c(OC)c2)C(C)C)cc1OC [R-verapamil, reference compound]
3. COc1ccc(CCN(C)CCCC(C#N)(c2ccc(OC)c(OC)c2)C(C)C)cc1OC (racemic) [20/80S]

[reply]
1: 134; 2: 104; 3: 166

[ask] Would you kindly share the measured Heart rate for COc1ccc(CCN(C)CCCC(C#N)(c2ccc(OC)c(OC)c2)C(C)C)cc1OC (racemic) [90/10S] ?
[reply] 124
